Reported values of normalised viability for individual entries
# Tested on: MFM-223
# experiment_summary: normalised viability (% of control), CellTiter-Blue; higher = more viable cells (about 100 = DMSO control)
# measurement_parameters: 10 nM; incubation time: 72 h
Kindly answer with a numeric value in %, unit omitted.

*Q* Send back MFM-223 normalised viability of COc1ccc(-c2cc3c(C)nc(N)nc3n([C@H]3CC[C@H](OCCO)CC3)c2=O)cn1 only.
*A* 92

*Q* Send back MFM-223 normalised viability of Cc1c(CN2CCN(C(=O)[C@H](C)O)CC2)sc2c(N3CCOCC3)nc(-c3cnc(N)nc3)nc12 only.
*A* 86.1

*Q* Send back MFM-223 normalised viability of C[C@]12C=CC(=O)C=C1CC[C@@H]1[C@@H]2[C@@H](O)C[C@@]2(C)[C@H]1CC[C@]2(O)C(=O)CO only.
*A* 95.7

*Q* Send back MFM-223 normalised viability of O=S(=O)(c1cccc2cnccc12)N1CCCNCC1 only.
*A* 102

*Q* Send back MFM-223 normalised viability of O=C(Nc1c[nH]nc1-c1nc2ccc(CN3CCOCC3)cc2[nH]1)NC1CC1 only.
*A* 93.4

====

# Tested on: MDA-MB-453
# experiment_summary: normalised response (% of control), CellTiter-Glo; higher = more viable cells (100 = DMSO, 0 = benzethonium chloride kill control)
# measurement_parameters: incubation time: 72 h
endpoint_name: normalised response (%)
Kindly answer with a numeric value in %, unit omitted.

Some entries whose results are on file:
CCCCC/C=C/C=C1/C(=O)C=C[C@@H]1C/C=C\CCCC(=O)O [15D-PGJ2] (8 nM) | 100
Cn1cc(CNCC2CCN(c3ncc(C(=O)NO)cn3)CC2)c2ccccc21 [Quisinostat] (10 nM) | 56.9

*Q* Send back MDA-MB-453 normalised response of CC(=O)OC[C@H]1O[C@@H]([S-])[C@H](OC(C)=O)[C@@H](OC(C)=O)[C@@H]1OC(C)=O.CCP(CC)CC.[Au+] [Auranofin] (25 nM) only.
*A* 104

*Q* Send back MDA-MB-453 normalised response of O=C(Nc1c[nH]nc1-c1nc2ccc(CN3CCOCC3)cc2[nH]1)NC1CC1 [AT9283] (10 nM) only.
*A* 97.1

*Q* Send back MDA-MB-453 normalised response of O=C(CCBr)N1CCN(C(=O)CCBr)CC1 [Pipobroman] (100 nM) only.
*A* 93.2

*Q* Send back MDA-MB-453 normalised response of CO[C@@H](C(=O)N1Cc2[nH]nc(NC(=O)c3ccc(N4CCN(C)CC4)cc3)c2C1)c1ccccc1 [Danusertib] (100 nM) only.
*A* 133

====

# System: CAL-85-1
# experiment_summary: normalised response (% of control), CellTiter-Glo; higher = more viable cells (100 = DMSO, 0 = benzethonium chloride kill control)
# measurement_parameters: incubation time: 72 h
Reported values of normalised response for individual entries

Some entries whose results are on file:
Cc1ccc(Nc2nccc(N(C)c3ccc4c(C)n(C)nc4c3)n2)cc1S(N)(=O)=O [Pazopanib] (10000 nM) | 103%
COc1cc(CCc2cc(NC(=O)c3ccc(N4CC(C)NC(C)C4)cc3)n[nH]2)cc(OC)c1 (centres undefined) [AZD4547] (1000 nM) | 105%
C[C@]12C=CC(=O)C=C1CC[C@@H]1[C@@H]2[C@@H](O)C[C@@]2(C)[C@H]1CC[C@]2(O)C(=O)CO [Prednisolone] (10000 nM) | 118%

*Q* Send back CAL-85-1 normalised response of Cc1cccc(-c2nn3c(c2-c2ccnc4ccc(C(N)=O)cc24)CCC3)n1 [Galunisertib] (1000 nM) only.
*A* 110%

====

# Test system: BT-474
# experiment_summary: normalised response (% of control), CellTox Green; higher = less cell death (100 = DMSO, 0 = benzethonium chloride kill control)
# measurement_parameters: incubation time: 72 h
endpoint_name: normalised response
Write the figure, then the unit, nothing else.

Some entries whose results are on file:
Cc1ccc(Nc2nccc(N(C)c3ccc4c(C)n(C)nc4c3)n2)cc1S(N)(=O)=O [Pazopanib] (10000 nM) | 99.5%
CC/C(=C(\c1ccc(O)cc1)c1ccc(OCCN(C)C)cc1)c1ccccc1 [4-hydroxytamoxifen] (100 nM) | 105%
Cc1c(CN2CCN(C(=O)[C@H](C)O)CC2)sc2c(N3CCOCC3)nc(-c3cnc(N)nc3)nc12 [GDC-0980] (1000 nM) | 85.6%
O=C(Nc1c[nH]nc1-c1nc2ccc(CN3CCOCC3)cc2[nH]1)NC1CC1 [AT9283] (10 nM) | 102%
O=C(NC[C@H](O)CO)c1ccncc1Nc1ccc(I)cc1F [Pimasertib] (1000 nM) | 78.8%
COc1cc(CCc2cc(NC(=O)c3ccc(N4CC(C)NC(C)C4)cc3)n[nH]2)cc(OC)c1 (stereo not drawn) [AZD4547] (10 nM) | 95.9%
O=C1c2c(O)ccc(O)c2C(=O)c2c(NCCNCCO)ccc(NCCNCCO)c21 [Mitoxantrone] (100 nM) | 101%

// next entry
*Q* Give a short answer stating reported normalised response for COc1ccc(-c2cc3c(C)nc(N)nc3n([C@H]3CC[C@H](OCCO)CC3)c2=O)cn1 (100 nM) .
*A* 94.4%

====

Reported values of normalised response for individual entries
# System: CAL-148
# experiment_summary: normalised response (% of control), CellTox Green; higher = less cell death (100 = DMSO, 0 = benzethonium chloride kill control)
# measurement_parameters: incubation time: 72 h
Kindly answer with a numeric value in %, unit omitted.

O=C(Nc1c[nH]nc1-c1nc2ccc(CN3CCOCC3)cc2[nH]1)NC1CC1 [AT9283] (10 nM) | 106
Cc1nc(Nc2ncc(C(=O)Nc3c(C)cccc3Cl)s2)cc(N2CCN(CCO)CC2)n1 [Dasatinib] (10 nM) | 93.9

*Q* Give a short answer stating reported normalised response for CCC/C=C/C=C/C(=O)O[C@H]1/C(=C/C(=O)OC)C[C@H]2C[C@H]([C@@H](C)O)OC(=O)C[C@H](O)C[C@@H]3C[C@H](OC(C)=O)C(C)(C)[C@](O)(C[C@@H]4C/C(=C/C(=O)OC)C[C@H](/C=C/C(C)(C)[C@]1(O)O2)O4)O3 [Bryostatin 1] (10 nM) .
*A* 108

*Q* Give a short answer stating reported normalised response for CS(=O)(=O)N1CCN(Cc2cc3nc(-c4cccc5[nH]ncc45)nc(N4CCOCC4)c3s2)CC1 [Pictilisib] (1000 nM) .
*A* 53.4

*Q* Give a short answer stating reported normalised response for CC(=O)OC[C@H]1O[C@@H]([S-])[C@H](OC(C)=O)[C@@H](OC(C)=O)[C@@H]1OC(C)=O.CCP(CC)CC.[Au+] [Auranofin] (2500 nM) .
*A* 60.1

*Q* Give a short answer stating reported normalised response for COc1ccc(-c2cc3c(C)nc(N)nc3n([C@H]3CC[C@H](OCCO)CC3)c2=O)cn1 (1000 nM) .
*A* 51.2

*Q* Give a short answer stating reported normalised response for COc1ccc(-c2cc3c(C)nc(N)nc3n([C@H]3CC[C@H](OCCO)CC3)c2=O)cn1 (10000 nM) .
*A* -9.66

*Q* Give a short answer stating reported normalised response for O=S(=O)(c1cccc2cnccc12)N1CCCNCC1 [Fasudil] (50000 nM) .
*A* 97.8

====

# Test system: CAL-85-1
# experiment_summary: normalised response (% of control), CellTox Green; higher = less cell death (100 = DMSO, 0 = benzethonium chloride kill control)
# measurement_parameters: incubation time: 72 h
endpoint_name: normalised response (%)
Kindly answer with a numeric value in %, unit omitted.

Some entries whose results are on file:
COc1cc(CCc2cc(NC(=O)c3ccc(N4CC(C)NC(C)C4)cc3)n[nH]2)cc(OC)c1 (centres undefined) [AZD4547] (1000 nM) | 126
CC(C)N(CCCNC(=O)Nc1ccc(C(C)(C)C)cc1)C[C@H]1O[C@@H](n2cc(Br)c3c(N)ncnc32)[C@H](O)[C@@H]1O [SGC0946] (100 nM) | 103

*Q* Send back CAL-85-1 normalised response of CC(C)N(CCCNC(=O)Nc1ccc(C(C)(C)C)cc1)C[C@H]1O[C@@H](n2cc(Br)c3c(N)ncnc32)[C@H](O)[C@@H]1O [SGC0946] (10000 nM) only.
*A* 114

*Q* Send back CAL-85-1 normalised response of COc1nc(N)nc2c1ncn2[C@@H]1O[C@H](CO)[C@@H](O)[C@@H]1O [Nelarabine] (100 nM) only.
*A* 90.6

====

# Tested on: HCC1937
# experiment_summary: drug sensitivity score (DSS), CellTiter-Glo (DSS (AUC-based score)); higher = stronger drug effect (viability inhibition or cytotoxicity); extreme values may be limits of the assay
# measurement_parameters: incubation time: 72 h
endpoint_name: drug sensitivity score
Quick one: just the number, no unit, thanks!

Some entries whose results are on file:
Cc1nc(Nc2ncc(C(=O)Nc3c(C)cccc3Cl)s2)cc(N2CCN(CCO)CC2)n1 | 6.2
O=C(CCBr)N1CCN(C(=O)CCBr)CC1 | 0
CO[C@@H](C(=O)N1Cc2[nH]nc(NC(=O)c3ccc(N4CCN(C)CC4)cc3)c2C1)c1ccccc1 | 0
Cc1c(Cn2c(C)nc3c(C(=O)O)cc(N4CCOCC4)cc32)cccc1C(F)(F)F | 0

*Q* Give a short answer stating reported drug sensitivity score for CC(=O)OC[C@H]1O[C@@H]([S-])[C@H](OC(C)=O)[C@@H](OC(C)=O)[C@@H]1OC(C)=O.CCP(CC)CC.[Au+] .
*A* 7.45
